# Assay target: α4β7 integrin (Homo sapiens, UniProt P13612+P26010)
# Construct: monitoring the capture of α4β7 integrin expressing cells; endogenous in cells; host or cells: RPMI8866 cells
# Protocol notes: α4β7 integrin cell capture assay
# Format: cell-based
# Measurement parameters: Table 2; capture of RPM18866 cells on MadCAM-1 extracellular domain-coated plate
pEC50: −log10 of the molar value.
Experimental endpoint: pEC50

Compound	Assay target	pEC50
Cc1c(-c2ccc(C[C@H](NC(=O)c3c(F)cc(N[C@H](C)C(F)(F)F)cc3F)C(=O)O)c3cccnc23)c(=O)n(C)c2ccc(F)cc12 (atropisomer, axis not shown)	α4β7 integrin (Homo sapiens, UniProt P13612+P26010)	8.96
CC[C@@H](Nc1cc(F)c(C(=O)N[C@@H](Cc2ccc(-c3c(N4CCC4)cc(C)n(C)c3=O)c3ncccc23)C(=O)O)c(F)c1)C(F)(F)F	α4β7 integrin (Homo sapiens, UniProt P13612+P26010)	9.05

###

# Assay target: α4β7 integrin (Homo sapiens, UniProt P13612+P26010)
# Construct: monitoring the capture of α4β7 integrin expressing cells; endogenous in cells; host or cells: RPMI8866 cells
# Sequence (P13612 34-1032): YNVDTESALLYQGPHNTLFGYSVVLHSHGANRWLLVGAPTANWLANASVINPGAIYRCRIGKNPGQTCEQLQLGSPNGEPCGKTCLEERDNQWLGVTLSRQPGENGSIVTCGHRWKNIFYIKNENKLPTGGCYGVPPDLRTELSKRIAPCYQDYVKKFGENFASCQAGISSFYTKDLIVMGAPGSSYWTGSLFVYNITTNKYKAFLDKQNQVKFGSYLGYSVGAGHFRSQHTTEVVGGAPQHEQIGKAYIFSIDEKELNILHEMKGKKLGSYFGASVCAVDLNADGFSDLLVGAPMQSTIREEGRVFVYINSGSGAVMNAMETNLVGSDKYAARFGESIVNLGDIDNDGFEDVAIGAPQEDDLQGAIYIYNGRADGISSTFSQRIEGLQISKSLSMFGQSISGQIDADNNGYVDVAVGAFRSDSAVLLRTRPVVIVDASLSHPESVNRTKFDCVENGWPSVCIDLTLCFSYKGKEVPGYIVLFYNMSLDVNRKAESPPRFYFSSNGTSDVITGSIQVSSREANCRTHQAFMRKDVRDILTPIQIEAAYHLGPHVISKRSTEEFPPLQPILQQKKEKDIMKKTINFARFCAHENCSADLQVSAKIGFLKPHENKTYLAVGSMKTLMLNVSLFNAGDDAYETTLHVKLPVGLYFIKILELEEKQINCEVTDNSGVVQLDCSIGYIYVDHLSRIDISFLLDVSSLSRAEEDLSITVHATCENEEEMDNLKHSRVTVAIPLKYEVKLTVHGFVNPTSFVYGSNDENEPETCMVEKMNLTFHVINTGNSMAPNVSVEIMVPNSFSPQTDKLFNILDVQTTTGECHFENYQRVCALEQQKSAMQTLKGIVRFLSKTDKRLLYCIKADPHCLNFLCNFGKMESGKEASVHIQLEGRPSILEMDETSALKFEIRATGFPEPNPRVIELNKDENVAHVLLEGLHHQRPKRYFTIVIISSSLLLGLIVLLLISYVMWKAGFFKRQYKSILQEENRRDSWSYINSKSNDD
# Sequence (P26010 20-798): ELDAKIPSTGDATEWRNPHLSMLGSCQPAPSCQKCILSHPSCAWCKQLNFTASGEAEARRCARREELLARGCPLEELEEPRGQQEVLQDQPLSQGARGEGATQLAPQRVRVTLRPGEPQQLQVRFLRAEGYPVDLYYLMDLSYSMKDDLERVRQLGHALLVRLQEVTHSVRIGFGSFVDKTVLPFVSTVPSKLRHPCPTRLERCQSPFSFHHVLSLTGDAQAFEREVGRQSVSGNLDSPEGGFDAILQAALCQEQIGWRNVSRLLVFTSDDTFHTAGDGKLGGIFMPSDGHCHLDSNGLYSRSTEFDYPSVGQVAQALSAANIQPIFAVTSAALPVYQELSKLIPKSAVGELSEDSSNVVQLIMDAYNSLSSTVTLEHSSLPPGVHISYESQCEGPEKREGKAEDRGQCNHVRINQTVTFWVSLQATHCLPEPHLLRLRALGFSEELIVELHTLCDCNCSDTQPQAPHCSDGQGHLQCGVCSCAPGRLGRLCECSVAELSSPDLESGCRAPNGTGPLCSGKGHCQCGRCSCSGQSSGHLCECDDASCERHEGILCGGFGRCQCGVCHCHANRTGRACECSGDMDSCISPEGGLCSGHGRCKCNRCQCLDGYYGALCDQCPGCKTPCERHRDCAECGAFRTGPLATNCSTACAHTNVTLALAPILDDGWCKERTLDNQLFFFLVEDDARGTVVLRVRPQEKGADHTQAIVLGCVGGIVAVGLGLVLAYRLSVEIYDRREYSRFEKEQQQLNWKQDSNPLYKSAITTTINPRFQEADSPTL
# Protocol notes: α4β7 integrin cell capture assay
# Format: cell-based
# Measurement parameters: Table 1; capture of RPM18866 cells on MadCAM-1 extracellular domain-coated plate
pEC50: −log10 of the molar value.
Experimental endpoint: pEC50

> print(dat)
                                   molecule  experimental.endpoint  quantitative.readout
1  N#Cc1ccc(-c2ccc(C[C@H](NC(=O)c3c(F)cc(NC(C4CC4)C(F)(F)F)cc3F)C(=O)O)c3cccnc23)c(Cl)c1 (some centres unmarked)                  pEC50                  7.84
2  COc1cc(F)cc(C(F)(F)F)c1-c1ccc(C[C@H](NC(=O)c2c(F)cccc2F)C(=O)O)c2cccnc12 (single isomer, unassigned) [Example 7]                  pEC50                  8.72
3  COc1cc(F)cc(C(F)(F)F)c1-c1ccc(C[C@H](NC(=O)c2c(F)cccc2F)C(=O)O)c2cccnc12 (single isomer, unassigned) [Example 8]                  pEC50                  7.38
4  N#Cc1ccc(-c2ccc(C[C@H](NC(=O)c3c(F)cc(N4CCOC[C@@H]4C(F)(F)F)cc3F)C(=O)O)c3cccnc23)c(Cl)c1 (single isomer, unassigned)                  pEC50                  8.33

[P] N#Cc1ccc(-c2ccc(C[C@H](NC(=O)c3c(F)cc(N4CCOC[C@H]4C(F)(F)F)cc3F)C(=O)O)c3cccnc23)c(Cl)c1 (single isomer, unassigned)
[Q] CC[C@@H](Nc1cc(F)c(C(=O)N[C@@H](Cc2ccc(-c3c(C(F)(F)F)c4cc(F)ccc4n(C)c3=O)c3ncccc23)C(=O)O)c(F)c1)C(F)(F)F
[R] CC[C@@H](Nc1cc(F)c(C(=O)N[C@@H](Cc2ccc(-c3cn(C)c(=O)n(C)c3=O)c3ncccc23)C(=O)O)c(F)c1)C(F)(F)F
[S] O=C(N[C@@H](Cc1ccc(-c2ncc3ccccc3c2Cl)c2ncccc12)C(=O)O)c1c(F)cccc1F
Query :: List from greatest to least pEC50. Put the labels in the requested order and list them out.
Result :: Q, R, S, P
(Q: 9.22, R: 8.92, S: 7.72, P: 7.48)
